target: Neu5Ac(a2-3)Gal(b1-3)]Neu5Ac(a2-3)Gal(b1-4)]GlcNAc; assay: glycan array binding signal (z-score within array); higher = stronger binding; conditions: glycan notation: IUPAC condensed, linker removed
The sample as a whole holds a higher share of the strongest signals than the screen did.
Overview of recorded glycan array binding signal (z-score) for various binders
Could you keep your reply to the number by itself?

[
  {
    "binder": "FGFR2-Fc (protein) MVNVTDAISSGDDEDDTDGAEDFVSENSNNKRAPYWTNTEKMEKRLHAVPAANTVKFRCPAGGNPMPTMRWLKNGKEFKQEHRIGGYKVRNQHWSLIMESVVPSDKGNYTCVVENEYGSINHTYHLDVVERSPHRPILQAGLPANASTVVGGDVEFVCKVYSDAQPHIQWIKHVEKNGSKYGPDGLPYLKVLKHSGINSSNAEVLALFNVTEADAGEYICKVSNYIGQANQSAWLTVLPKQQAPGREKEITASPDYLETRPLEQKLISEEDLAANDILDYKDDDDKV",
    "glycan array binding signal (z-score)": -0.115
  },
  {
    "binder": "LlpA1 (Pseudomonas fluorescens), Q4KHC3 (protein) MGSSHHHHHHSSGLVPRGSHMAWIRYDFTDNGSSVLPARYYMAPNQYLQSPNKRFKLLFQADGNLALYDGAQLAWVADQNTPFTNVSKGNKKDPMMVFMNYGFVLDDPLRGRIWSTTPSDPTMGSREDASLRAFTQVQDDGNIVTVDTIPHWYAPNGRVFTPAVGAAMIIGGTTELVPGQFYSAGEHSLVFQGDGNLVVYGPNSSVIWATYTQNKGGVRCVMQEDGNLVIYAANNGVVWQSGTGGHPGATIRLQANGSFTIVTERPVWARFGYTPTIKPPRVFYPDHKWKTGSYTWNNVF",
    "glycan array binding signal (z-score)": 0.082
  }
]

Please report the recorded glycan array binding signal (z-score) for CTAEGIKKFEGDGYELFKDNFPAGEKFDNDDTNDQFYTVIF [MUB40 (Lactobacillus reuteri)] .
-0.307
